Assay: Cytotoxicity, tube dilution method
Assay type: cell-based
Conditions: chicken, chick embryo fibroblast cells, MEM medium, read-out: Minimum Inhibitory Concentration, tube dilution method
Reported Property: MCC at 48 h (µg/mL)
Express it in µg/mL; write the number only.

I would be grateful if you could share the reported MCC at 48 h for CC=CC(C)=CC(C)C(=O)CC(O)CC1CC(=O)NC(=O)C1 (stereo not shown) [Antibiotic TS-885] .
1

###

Assay: Serum concentration after intravenous injection in mice
Details: mouse, 25 mg/kg
Reported Property: concentration at 10 min

Param item = CC=CC(C)=CC(C)C(=O)CC(O)CC1CC(=O)NC(=O)C1 (stereo not shown) [Antibiotic TS-885] ; retrieve measured concentration at 10 min.
2900 ng/mL

Data origin: patent US3988462A
